- Test system: NEC8 (Other Solid Carcinomas)
- Experiment Notes: combination Emax (second highest fraction inhibited in the dose matrix, 72 h); higher = more inhibition; extreme values may be limits of the assay
Attribute Measured: combination Emax
Field format: numeric only.

Examples with their reported combination Emax follow.
Compound	Attribute Measured	Recorded Number
CCc1c2c(nc3ccc(O)cc13)-c1cc3c(c(=O)n1C2)COC(=O)[C@]3(O)CC [SN-38] + O=C(c1cc(Cc2n[nH]c(=O)c3ccccc23)ccc1F)N1CCN(C(=O)C2CC2)CC1 [Olaparib] (first compound max 0.3 µM, 7x7, partner max 10 µM)	combination Emax	1
Cc1c2c(nn1C)CSCc1cc(n(C)n1)CSc1cc(c3ccccc3c1)OCCCc1c(C(=O)O)n(C)c3c-2c(Cl)ccc13 [AZD5991] + Cn1cnc2c(F)c(Nc3ccc(Br)cc3Cl)c(C(=O)NOCCO)cc21 [Selumetinib] (first compound max 1 µM, 7x7, partner max 3 µM)	combination Emax	0.383
Cc1cc2ncnn2cc1Nc1ncc2c(n1)n(C1CCOCC1)c(=O)n2C [AZD7648] + C=CCn1c(=O)c2cnc(Nc3ccc(N4CCN(C)CC4)cc3)nc2n1-c1cccc(C(C)(C)O)n1 [AZD1775] (first compound max 10 µM, partner max 1 µM)	combination Emax	0.123

Now for another entry.
What measured combination Emax goes with COc1cccc2c1C(=O)c1c(O)c3c(c(O)c1C2=O)C[C@@](O)(C(=O)CO)C[C@@H]3O[C@H]1C[C@H](N)[C@H](O)[C@H](C)O1 [Doxorubicin] + Cc1cc2ncnn2cc1Nc1ncc2c(n1)n(C1CCOCC1)c(=O)n2C [AZD7648] (first compound max 1 µM, 7x7, partner max 10 µM) ?
0.973

====

- System: KMOE-2 (Acute Myeloid Leukemia)
- Experiment Notes: combination Emax (second highest fraction inhibited in the dose matrix, 72 h); higher = more inhibition; extreme values may be limits of the assay
Attribute Measured: combination Emax

Check out these entries, answers already filled in.
Molecule	Assayed Target	combination Emax
CC1(C)CCC(CN2CCN(c3ccc(C(=O)NS(=O)(=O)c4ccc(NCC5CCOCC5)c([N+](=O)[O-])c4)c(Oc4cnc5[nH]ccc5c4)c3)CC2)=C(c2ccc(Cl)cc2)C1 [Venetoclax] + COc1cc(Nc2ncc3c(n2)-c2ccc(Cl)cc2C(c2c(F)cccc2OC)=NC3)ccc1C(=O)O [Alisertib] (first compound max 1 µM, 7x7, partner max 10 µM)	KMOE-2 (Acute Myeloid Leukemia)	0.928
COc1cccc(OCCCN)c1-c1cc(Nc2cnc(C#N)cn2)n[nH]1 [Prexasertib] + C[C@@H]1COCCN1C2=NC(=NC(=C2)C3(CC3)[S@](=N)(=O)C)C4=C5C=CNC5=NC=C4 [AZD6738] (first compound max 1 µM, 7x7, partner max 10 µM)	KMOE-2 (Acute Myeloid Leukemia)	0.948
CN(CCO)CC[C@H](CSc1ccccc1)Nc1ccc(S(=O)(=O)NC(=O)c2ccc(N3CCC([C@@H](O)c4ccccc4-c4ccc(Cl)cc4)CC3)cc2)cc1S(=O)(=O)C(F)(F)F [AZD4320] + Cn1cnc2c(F)c(Nc3ccc(Br)cc3Cl)c(C(=O)NOCCO)cc21 [Selumetinib] (first compound max 1 µM, 7x7, partner max 3 µM)	KMOE-2 (Acute Myeloid Leukemia)	1

# input for lookup
Any idea what combination Emax was measured for CC(=O)Nc1cccc(-n2c(=O)n(C3CC3)c(=O)c3c(Nc4ccc(I)cc4F)n(C)c(=O)c(C)c32)c1 [Trametinib] + Cc1nc(-c2cn3c(n2)-c2ccc(-c4cnn(C(C)(C)C(N)=O)c4)cc2OCC3)n(C(C)C)n1 [Taselisib] (first compound max 1 µM, 7x7, partner max 10 µM) ?
1
